Molecular target: T1, Processed stabilized hMPV PreF trimer (115BV) (human metapneumovirus, strain B2)
T1 construct: also called Processed hMPV PreF trimer; processed PreF
Assay: BLI, mAb on anti-human Fc sensor
# Octet binding response values compiled below
Answer by giving the amount and then stating its unit.

| binder | measured_quantity | endpoint_result |
| --- | --- | --- |
| M3A12 (antibody, V domains shown, IgG) VH: QVQLQESGPQLVKPSQTLSLTCTVSGDSISSSDYCWSWIRQSPGKGLEWIGHSVYSGDTQYNPSLKSRLSISVDTSKNQFSLRLRSVTAADTAVYYCARGNDFWSGSFDYWGQGALVIVSS VL: DIQMTQSPSSLSASVGDRVTITCRASQSIGTYLNWYQQKPGKAPKVLIYAASSLQSGVPSRFSGRGSGTDFTLTVSSLQPEDFASYYCQQSYTKPYTFGQGTKLEIK | Octet binding response | 0.0766 nm |

Let us examine a further case.
Task: Can you look up the measured Octet binding response of M4C04 (antibody, V domains shown, IgG) VH: RVTLRESGPALLKPTQTLTLTCTFSGFSLNTYGMSVNWIRQPPGKALEWLSRIDWDGDKYFNTSLKTRLTISKDTSKNQVVLTMTNMEPVDTATYYCAQSVIVPAQSFVSWFDPWGPGTLVTVSS VL: EIVMTQSPATLSVSPGERATLSCRASQSVRSNLAWYQQKPGQAPRLLIYGASSRATGIPARFSGSGSGTEFTLTISSLQSEDLAIYYCQQYNNWPPGAFGQGTKVEIK for me?
Result: 0.303 nm
